Please respond with reported IC50 for every item in the list.
# System: VCAM-1
# ASSAY_COMMENT: In Vitro VCAM-1 Assay (TNF-α stimulated endothelial cells, cell-surface ELISA)
# Format: cell-based
# CONDITION_DETAILS: Homo sapiens, Endothelial cell, 16 h, primary human aortic (HAEC) or pulmonary (HPAEC) endothelial cells, TNF-α 1 ng/ml, approximately 16 hours, ELISA OD 450 nm

**Query** Please supply the value of reported IC50 for the item COc1cc(OC)c(-c2cccs2)cc1/C=C/C(=O)c1ccc(S(=O)(=O)NCCCn2ccnc2)cc1 [Example 23]
**Result** < 5 µM

**Query** Using known records, supply IC50 for COc1cc(OC)c(-c2cccs2)cc1/C=C/C(=O)c1ccc(S(=O)(=O)Nc2ccc(Cl)cn2)cc1 [Example 10]
**Result** < 10 µM

**Query** Using known records, supply IC50 for CCCC(=O)NS(=O)(=O)c1ccc(C(=O)/C=C/c2cc(-c3cc4ccccc4n3C)c(OC)cc2OC)cc1 [Example 37]
**Result** < 5 µM

**Query** Query IC50 for COc1cc(OC)c(-c2cc3ccccc3n2C)cc1/C=C/C(=O)c1ccc(S(=O)(=O)N(C)C)cc1 [Example 31]
**Result** < 10 µM

**Query** Recall and state the measured IC50 for COc1cc(OC)c(-c2cccs2)cc1/C=C/C(=O)c1ccc(S(=O)(=O)Nc2cc(C)on2)cc1 [Example 1] .
**Result** < 5 µM

**Query** Indicate its recorded IC50; the compound in question is COc1cc(OC)c(-c2cccs2)cc1/C=C/C(=O)c1ccc(S(=O)(=O)Nc2ncccn2)cc1 [Example 3]
**Result** < 5 µM

**Query** Identify the reported IC50 for the following entry. COc1cc(OC)c(-c2cc3ccccc3[nH]2)cc1/C=C/C(=O)c1ccc(S(=O)(=O)NC(C)=O)cc1 [Example 42]
**Result** > 10 µM

**Query** Give reported IC50 value for COc1cc(OC)c(-c2cc3ccccc3[nH]2)cc1/C=C/C(=O)c1ccc(S(=O)(=O)NCCCn2ccnc2)cc1 [Example 50]
**Result** > 10 µM

**Query** Name the recorded IC50 of the compound listed here: CCOC(=O)NS(=O)(=O)c1ccc(C(=O)/C=C/c2cc(-c3cc4ccccc4[nH]3)c(OC)cc2OC)cc1 [Example 41]
**Result** < 5 µM

**Query** For COc1cc(OC)c(-c2cc3ccccc3n2C)cc1/C=C/C(=O)c1ccc(S(=O)(=O)NO)cc1 [Example 34] , write its IC50.
**Result** > 10 µM

**Query** State, in one line, measured IC50 of COc1cc(OC)c(-c2cccs2)cc1/C=C/C(=O)c1ccc(S(=O)(=O)NC(C)(C)C(=O)O)cc1 [Example 27]
**Result** < 10 µM

**Query** State its IC50 for this compound: CNS(=O)(=O)c1ccc(C(=O)/C=C/c2cc(-c3cc4ccccc4n3C)c(OC)cc2OC)cc1 [Example 29]
**Result** < 5 µM

**Query** Look up IC50 of COc1cc(OCC(CO)CO)c(/C=C/C(=O)c2ccc(S(=O)(=O)Nc3cc(C)on3)cc2)cc1-c1cccs1 [Example 13] and report it.
**Result** > 10 µM

**Query** Given COc1cc(OC)c(N2CCCC2)cc1/C=C/C(=O)c1ccc(S(=O)(=O)NCCCn2ccnc2)cc1 [Example 54] , respond with its IC50.
**Result** > 5 µM

**Query** Recall and state the measured IC50 for COc1cc(OC)c(-c2cccs2)cc1/C=C/C(=O)c1ccc(S(=O)(=O)Nc2cc[nH]n2)cc1 [Example 6] .
**Result** < 5 µM

**Query** Indicate the recorded IC50 value for this compound: COc1cc(OC)c(-c2cccs2)cc1/C=C/C(=O)c1ccc(S(=O)(=O)NN2CCCCC2)cc1 [Example 22]
**Result** > 10 µM

###

What IC50 was measured for each of the following?
# System: VCAM-1
# ASSAY_COMMENT: In Vitro VCAM-1 Assay (TNF-α stimulated endothelial cells, cell-surface ELISA)
# Format: cell-based
# CONDITION_DETAILS: Homo sapiens, Endothelial cell, 16 h, primary human aortic (HAEC) or pulmonary (HPAEC) endothelial cells, TNF-α 1 ng/ml, approximately 16 hours, ELISA OD 450 nm

**Query** Supply measured IC50 of "CCCC(=O)NS(=O)(=O)c1ccc(C(=O)/C=C/c2cc(-c3cc4ccccc4[nH]3)c(OC)cc2OC)cc1" in your reply.
**Result** < 5 µM

**Query** State, in one line, measured IC50 of "COc1cc(OC)c(-c2cccn2C)cc1/C=C/C(=O)c1ccc(S(=O)(=O)Nc2cc(C)on2)cc1"
**Result** < 5 µM

**Query** Return IC50 for the following compound: "COc1cc(OC)c(N2CCCC2)cc1/C=C/C(=O)c1ccc(S(=O)(=O)NCc2ccccn2)cc1"
**Result** < 5 µM

**Query** Look up and report measured IC50 for this entry: "COc1cc(OC)c(-c2cc3ccccc3[nH]2)cc1/C=C/C(=O)c1ccc(S(=O)(=O)N(C)C)cc1"
**Result** < 5 µM

**Query** Indicate the recorded IC50 value for this compound: "CCCC(=O)NS(=O)(=O)c1ccc(C(=O)/C=C/c2cc(N3CCCC3)c(OC)cc2OC)cc1"
**Result** < 5 µM

**Query** // fetch IC50 given entry "COc1cc(OC)c(-c2cccs2)cc1/C=C/C(=O)c1ccc(S(=O)(=O)NCCN2CCOCC2)cc1"
**Result** < 5 µM

**Query** Provide IC50 value for the following compound: COc1cc(OC)c(-c2cccs2)cc1/C=C/C(=O)c1ccc(S(=O)(=O)N2CCCCC2C(=O)O)cc1 (stereo not shown)
**Result** < 10 µM

###

Assignment: determine reported melting point for the given compounds.
Counter-ions that a name gives are not always drawn.

**Query** Please give measured melting point of the following entry: "COc1cc(OC)c(-c2cccs2)cc1/C=C/C(=O)c1ccc(S(=O)(=O)NCc2cccnc2)cc1"
**Result** 167 to 168 °C

**Query** Please look at this compound and report its melting point: COc1cc(OC)c(-c2cccs2)cc1/C=C/C(=O)c1ccc(S(=O)(=O)NCC(F)(F)F)cc1 [Example 24]
**Result** 167 to 168 °C

**Query** Retrieve melting point measured for "CONS(=O)(=O)c1ccc(C(=O)/C=C/c2cc(-c3cc4ccccc4n3C)c(OC)cc2OC)cc1" and print it.
**Result** 214 to 216 °C

**Query** Name the recorded melting point of the item "COc1cc(OC)c(-c2cccs2)cc1/C=C/C(=O)c1ccc(S(=O)(=O)Nc2ccon2)cc1" in your answer.
**Result** 198 to 199 °C

**Query** Give a short answer stating reported melting point for "COc1cc(OC)c(-c2cccs2)cc1/C=C/C(=O)c1ccc(S(=O)(=O)Nc2ccc(C(F)(F)F)cn2)cc1" .
**Result** 228 to 229 °C

**Query** For the compound COc1cc(OC)c(-c2cccs2)cc1/C=C/C(=O)c1ccc(S(=O)(=O)Nc2cc(C)on2)cc1 [Example 1] , report melting point.
**Result** 202 to 203 °C

**Query** Query melting point for "COc1cc(OC)c(N2CCCC2)cc1/C=C/C(=O)c1ccc(S(=O)(=O)NCc2ccccn2)cc1"
**Result** 112 to 116 °C

**Query** Please report the measured melting point for "COc1cc(OC)c(-c2cccs2)cc1/C=C/C(=O)c1ccc(S(=O)(=O)Nc2ccc(F)cn2)cc1"
**Result** 194 to 195 °C

**Query** Identify measured melting point corresponding to "CCC(=O)[N-]S(=O)(=O)c1ccc(C(=O)/C=C/c2cc(-c3cc4ccccc4[nH]3)c(OC)cc2OC)cc1.[Na+]"
**Result** > 250 °C

**Query** Please supply the value of reported melting point for the item "COc1cc(OC)c(-c2cccs2)cc1/C=C/C(=O)c1ccc(S(=O)(=O)NCCN2CCOCC2)cc1"
**Result** 171 to 172 °C

**Query** For the compound "COc1cc(OC)c(-c2cccs2)cc1/C=C/C(=O)c1ccc(S(=O)(=O)NN2CCCCC2)cc1" , report melting point.
**Result** 174 to 176 °C

**Query** Return the recorded melting point value; entry: COc1cc(OC)c(-c2cccs2)cc1/C=C/C(=O)c1ccc(S(=O)(=O)Nc2cc(C)on2)cc1 (as salt: sodium) [Example 2]
**Result** > 260 °C

**Query** Return melting point for the following compound: "COc1cc(OC)c(-c2cc3ccccc3n2C)cc1/C=C/C(=O)c1ccc(S(=O)(=O)N(C)C)cc1"
**Result** 120 to 122 °C

**Query** Given "COc1cc(OC)c(N2CCCC2)cc1/C=C/C(=O)c1ccc(S(=O)(=O)NCCCn2ccnc2)cc1" , respond with its melting point.
**Result** 140 to 143 °C

**Query** Could you please provide reported melting point for "COc1cc(OC)c(-c2cc3ccccc3[nH]2)cc1/C=C/C(=O)c1ccc(S(=O)(=O)NC(=O)C(C)C)cc1" ? Thanks!
**Result** 243 to 245 °C (dec.)

**Query** Input "COc1cc(OC)c(-c2cc3ccccc3[nH]2)cc1/C=C/C(=O)c1ccc(S(=O)(=O)[N-]C(C)=O)cc1.[Na+]" , output reported melting point.
**Result** 240 to 250 °C

**Query** // fetch melting point given entry "COc1cc(OC)c(-c2cc3ccccc3[nH]2)cc1/C=C/C(=O)c1ccc(S(=O)(=O)N(C)C)cc1"
**Result** 158 to 162 °C

**Query** Give the reported value of melting point for this record: "COc1cc(OC)c(N2CCCC2)cc1/C=C/C(=O)c1ccc(S(=O)(=O)NCC(=O)O)cc1"
**Result** 155 to 158 °C

**Query** Given "COc1cc(OC)c(-c2cccn2C)cc1/C=C/C(=O)c1ccc(S(=O)(=O)Nc2cc(C)on2)cc1" , respond with its melting point.
**Result** 113 to 115 °C

**Query** Return reported melting point. Input compound: "CCCC(=O)NS(=O)(=O)c1ccc(C(=O)/C=C/c2cc(-c3cc4ccccc4n3C)c(OC)cc2OC)cc1"
**Result** 144 to 146 °C
